Data provenance is PubChem BioAssay (NCI).

# Test system: T-47D breast
# assay-explanation: NCI tumour cell line growth inhibition, 48 h
Known TGI of a selection of compounds

Below are worked cases with known answers.
- compound: "CC1=C(C)C1[N+](=O)[O-]"
  experimental-endpoint: "TGI"
  observed-result: "> 100 µM"
- compound: "O=C(NNCc1ccco1)c1cc2ccccc2[nH]1"
  experimental-endpoint: "TGI"
  observed-result: "> 100 µM"
- compound: "Cc1ccc(N2CCC3(CC2)OCCO3)cc1"
  experimental-endpoint: "TGI"
  observed-result: "> 100 µM"
- compound: "O=c1oc2cc(N=Cc3ccc4c(c3)OCO4)ccc2c2ccccc12"
  experimental-endpoint: "TGI"
  observed-result: "> 100 µM"
- compound: "CCCCCCCCCCC(C(O)c1ccccc1)N1CCCCC1 (configuration not stated)"
  experimental-endpoint: "TGI"
  observed-result: "4.35 µM"
- compound: "CCN1Cc2c(ccc(F)c2C#N)O[C@@H](C)CNC(=O)c2c(N)nn3ccc1nc23"
  experimental-endpoint: "TGI"
  observed-result: "56.3 µM"
- compound: "OC1[C@H](O)CN(OCc2ccccc2)C[C@@H]1O (some centres not stated)"
  experimental-endpoint: "TGI"
  observed-result: "> 100 µM"
- compound: "N#CC1=C(N)Oc2c(sc3c(Br)cccc23)C1c1ccc(Br)cc1 (configuration not stated)"
  experimental-endpoint: "TGI"
  observed-result: "4.67 µM"
- compound: "CN(C)CCCN1c2ccccc2C(C)(C)c2ccccc21"
  experimental-endpoint: "TGI"
  observed-result: "38.7 µM"
- compound: "COc1cccc(-c2nc3ccccc3c(=O)[nH]2)c1OC"
  experimental-endpoint: "TGI"
  observed-result: "> 100 µM"

TGI reported for this compound S=C1CSc2c(ccc3ccccc23)N1 : > 100 µM

Sample C=CCc1ccccc1CC1(OCC)OC(=O)c2ccccc21 (configuration not stated) ; TGI observed: > 100 µM
